target-desc: UniProtKB O75582
Sequence (O75582 whole entry, looked up): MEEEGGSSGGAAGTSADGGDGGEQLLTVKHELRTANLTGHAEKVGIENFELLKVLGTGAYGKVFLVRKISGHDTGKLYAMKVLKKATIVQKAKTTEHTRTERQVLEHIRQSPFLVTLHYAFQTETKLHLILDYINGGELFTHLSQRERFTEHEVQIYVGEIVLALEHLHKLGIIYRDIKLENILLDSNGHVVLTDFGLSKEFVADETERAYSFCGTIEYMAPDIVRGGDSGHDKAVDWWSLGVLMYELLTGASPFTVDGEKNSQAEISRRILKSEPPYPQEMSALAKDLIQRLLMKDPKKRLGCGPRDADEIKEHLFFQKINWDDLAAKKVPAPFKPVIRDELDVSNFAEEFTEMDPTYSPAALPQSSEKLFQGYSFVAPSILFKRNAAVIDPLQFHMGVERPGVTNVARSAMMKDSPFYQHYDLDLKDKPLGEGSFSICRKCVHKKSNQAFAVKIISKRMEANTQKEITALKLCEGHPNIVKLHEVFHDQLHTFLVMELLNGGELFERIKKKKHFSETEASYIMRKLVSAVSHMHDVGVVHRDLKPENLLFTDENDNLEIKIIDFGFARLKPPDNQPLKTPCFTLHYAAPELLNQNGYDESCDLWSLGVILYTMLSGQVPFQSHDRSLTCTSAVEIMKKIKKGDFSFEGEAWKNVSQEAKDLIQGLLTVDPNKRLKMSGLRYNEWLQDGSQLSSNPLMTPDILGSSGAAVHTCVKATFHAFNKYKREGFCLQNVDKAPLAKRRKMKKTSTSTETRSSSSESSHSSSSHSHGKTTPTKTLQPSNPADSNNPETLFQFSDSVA
assay-info: radiometric filter-binding kinase assay, Kinase HotSpot
experimental-setup: compound 0.5 µM; ATP 10 µM
property-name: residual activity (%)
Quick note: give the figure in %, leave out the unit.

For orientation, consider the following solved cases.
// returns reported residual activity for input COc1ccc(Cl)cc1NC(=O)Nc1cc(C)nc2ccccc12
88.4

// returns reported residual activity for input CN(C)c1ccc(/C=C2\C(=O)Nc3ccccc32)cc1
98.7

// returns reported residual activity for input O=C(c1cc2cc(O)ccc2[nH]1)c1cc2cc(O)ccc2[nH]1
96.1

// returns reported residual activity for input COc1ccc2c(c1)/C(=C/c1cnc[nH]1)C(O)=N2
89.2

// returns reported residual activity for input COc1cc2ncnc(Nc3ccc(Oc4ccccc4)cc3)c2cc1OC
106

Please look at the following molecule next.
// returns reported residual activity for input Cc1cccc(-c2nc(C(C)(C)C)[nH]c2-c2ccc3c(c2)OCO3)n1
97.5
